- System: Escherichia coli ATCC 25922
- experiment.summary: Colistin broth microdilution MIC with potentiator compounds (Example 1)
- Format: cell-based
- stated.conditions: E. coli ATCC 25922; MIC in the presence of 1.0% DMSO / MIC in the presence of 0.1 mM potentiator compound and 1.0% DMSO; positive = increased, negative = decreased susceptibility, 1 = no effect
Below: a set of entries, each annotated with reported Fold increase in bacterial susceptibility to colistin.
readout.label: Fold increase in bacterial susceptibility to colistin

| molecule | observed.result |
| --- | --- |
| O=C(NCC(=O)N1CCN(c2cccc(Cl)c2)CC1)c1cccc(NC(=O)c2cccnc2)c1 [IIC] | 1 fold |
| CCOC(=O)c1cc2cc(C(=O)N3CCN(Cc4cccc(C(F)(F)F)c4)CC3)ccc2[nH]1 [IIB] | 1 fold |
| O=C(CCCN1C(=O)c2cccc3cccc(c23)C1=O)N1CCN(c2ccccc2O)CC1 [IIA] | 1 fold |
| CN(C)CCNC(=O)c1cccc(CNC(=O)Nc2ccc3c(c2)Cc2ccccc2-3)c1 [I] | +2 fold |
| N#Cc1cccc(CN2CCC(c3cnn(Cc4cccc(C#N)c4)c3)CC2)c1 [IID] | 1 fold |

---

Below: a set of entries, each annotated with reported Fold increase in bacterial susceptibility to colistin.
- System: Stenotrophomonas maltophilia ATCC 13637
- experiment.summary: Colistin broth microdilution MIC with potentiator compounds (Example 1)
- Format: cell-based
- stated.conditions: S. maltophilia ATCC 13637; MIC in the presence of 1.0% DMSO / MIC in the presence of 0.1 mM potentiator compound and 1.0% DMSO; positive = increased, negative = decreased susceptibility, 1 = no effect
readout.label: Fold increase in bacterial susceptibility to colistin

| molecule | observed.result |
| --- | --- |
| CCOC(=O)c1cc2cc(C(=O)N3CCN(Cc4cccc(C(F)(F)F)c4)CC3)ccc2[nH]1 [IIB] | +4 fold |
| N#Cc1cccc(CN2CCC(c3cnn(Cc4cccc(C#N)c4)c3)CC2)c1 [IID] | +8 fold |
| O=C(NCC(=O)N1CCN(c2cccc(Cl)c2)CC1)c1cccc(NC(=O)c2cccnc2)c1 [IIC] | +4 fold |
| CN(C)CCNC(=O)c1cccc(CNC(=O)Nc2ccc3c(c2)Cc2ccccc2-3)c1 [I] | +64 fold |
| O=C(CCCN1C(=O)c2cccc3cccc(c23)C1=O)N1CCN(c2ccccc2O)CC1 [IIA] | +4 fold |

---

Below: a set of entries, each annotated with reported Fold increase in bacterial susceptibility to colistin.
- Tested on: Acinetobacter baumannii ATCC 15308
- experiment.summary: Colistin broth microdilution MIC with potentiator compounds (Example 1)
- Type: cell-based
- stated.conditions: A. baumannii ATCC 15308; MIC in the presence of 1.0% DMSO / MIC in the presence of 0.1 mM potentiator compound and 1.0% DMSO; positive = increased, negative = decreased susceptibility, 1 = no effect
readout.label: Fold increase in bacterial susceptibility to colistin

| structure | observed.result |
| --- | --- |
| O=C(CCCN1C(=O)c2cccc3cccc(c23)C1=O)N1CCN(c2ccccc2O)CC1 | +4 fold |
| CN(C)CCNC(=O)c1cccc(CNC(=O)Nc2ccc3c(c2)Cc2ccccc2-3)c1 | +4 fold |
| N#Cc1cccc(CN2CCC(c3cnn(Cc4cccc(C#N)c4)c3)CC2)c1 | +4 fold |
| O=C(NCC(=O)N1CCN(c2cccc(Cl)c2)CC1)c1cccc(NC(=O)c2cccnc2)c1 | +4 fold |
| CCOC(=O)c1cc2cc(C(=O)N3CCN(Cc4cccc(C(F)(F)F)c4)CC3)ccc2[nH]1 | >8 fold |
